- assay_overview: TD-6450 phase I clinical study (SAD/MAD): pharmacokinetics
- Assay type: in vivo, human
- condition_context: male, human, plasma, oral, 500 mg, Male subjects, SAD arm NCT02022306, Dose 500.00, 30 Minutes; read-out: Concentration (ng/ml)
property_measured: concentration at 30 min (ng/mL)
Just the number in ng/mL, nothing appended.

// concentration at 30 min lookup, key: CNC(=O)N1C[C@@H](C)N(c2ccc(C(=O)Nc3ccc(-c4ccc(-c5c[nH]c([C@@H]6CCCN6C(=O)[C@@H](NC(=O)OC)C(C)C)n5)cc4)c(OC(F)(F)F)c3)cn2)C[C@@H]1C [TD-6450]
2.85

* * *

- assay_overview: TD-6450 phase I clinical study (SAD/MAD): pharmacokinetics
- Assay type: in vivo, human
- condition_context: human, in vivo, 30 mg; Male subjects, SAD arm NCT02022306, Dose 30.00, 2 Hours; read-out: Concentration
property_measured: concentration at 2 h
Field: value (include unit after the number)

I am curious: what concentration at 2 h value has been reported for CNC(=O)N1C[C@@H](C)N(c2ccc(C(=O)Nc3ccc(-c4ccc(-c5c[nH]c([C@@H]6CCCN6C(=O)[C@@H](NC(=O)OC)C(C)C)n5)cc4)c(OC(F)(F)F)c3)cn2)C[C@@H]1C ?
8.22 ng/mL

* * *

- assay_overview: TD-6450 phase I clinical study (SAD/MAD): pharmacokinetics
- Assay type: in vivo, human
- condition_context: male, human, plasma, oral, 0.5 mg, Male subjects, SAD arm NCT02022306, Dose 0.50, 168 Hours; read-out: Concentration
property_measured: concentration at 168 h (ng/mL)
Give a bare numeral; the unit ng/mL is implied.

Please report the recorded concentration at 168 h for CNC(=O)N1C[C@@H](C)N(c2ccc(C(=O)Nc3ccc(-c4ccc(-c5c[nH]c([C@@H]6CCCN6C(=O)[C@@H](NC(=O)OC)C(C)C)n5)cc4)c(OC(F)(F)F)c3)cn2)C[C@@H]1C .
0

* * *

- assay_overview: TD-6450 phase I clinical study (SAD/MAD): pharmacokinetics
- Format: in vivo, human
- condition_context: both sexes, human, plasma, oral, 120 mg, SAD 120 mg; read-out: t1/2 Mean ± SD (converted)
property_measured: half-life (h)
Express the result in h but write the number alone.

May I ask what half-life has been recorded for CNC(=O)N1C[C@@H](C)N(c2ccc(C(=O)Nc3ccc(-c4ccc(-c5c[nH]c([C@@H]6CCCN6C(=O)[C@@H](NC(=O)OC)C(C)C)n5)cc4)c(OC(F)(F)F)c3)cn2)C[C@@H]1C [TD-6450] ?
78.4

* * *

Listed compounds paired with reported IC50
- Test system: mature stage V gametocytes (NF54 strain)
- assay_overview: microbe, parasite or virus in culture
- Type: cell-based, Plasmodium falciparum
- condition_context: stage V gametocytes NF54, 24 h, dose-response analysis; N/A = not active in dose-response analysis; read-out: Stiffening IC50 (retention)
Reply with just the number (in µM).

See these solved cases before continuing.
1. CCCCCCCCN=c1ccn(CCCCCCCC)cc1; 3.65
2. CC1=C(C)C(=O)C(CCCCCCCCCC[P+](c2ccccc2)(c2ccccc2)c2ccccc2)=CC1=O; 1.9
3. CC(C)[C@H](C(=O)Nc1ccc(C(=O)NO)cc1)c1ccccc1; 1.9
4. CC(C)NC(=N)NC(=N)Nc1ccc(Cl)c(Cl)c1.Cl [Chlorproguanil hydrochloride]; 10.3

With those in mind, consider the next compound.
Find the recorded IC50 belonging to CCCCN(CCCC)c1ccc2nc3ccc(=[N+](CCCC)CCCC)cc-3sc2c1 and report it.
5.05

* * *

- assay_overview: TD-6450 phase I clinical study (SAD/MAD): pharmacokinetics
- Assay type: in vivo, human
- condition_context: female, human, plasma, oral, 5 mg, Female subjects, SAD arm NCT02022306, Dose 5.00, 30 Minutes; read-out: Concentration
property_measured: concentration at 30 min (ng/mL)
# unit: ng/mL | format: bare number

Consider the molecule CNC(=O)N1C[C@@H](C)N(c2ccc(C(=O)Nc3ccc(-c4ccc(-c5c[nH]c([C@@H]6CCCN6C(=O)[C@@H](NC(=O)OC)C(C)C)n5)cc4)c(OC(F)(F)F)c3)cn2)C[C@@H]1C [TD-6450] and give its measured concentration at 30 min.
0

* * *

- assay_overview: TD-6450 phase I clinical study (SAD/MAD): pharmacokinetics
- Format: in vivo, human
- condition_context: human, in vivo, 1.5 mg; Male subjects, SAD arm NCT02022306, Dose 1.50, 3 Hours; read-out: Concentration
property_measured: concentration at 3 h (ng/mL)
Reply with just the number (in ng/mL).

Which value of concentration at 3 h has been reported for CNC(=O)N1C[C@@H](C)N(c2ccc(C(=O)Nc3ccc(-c4ccc(-c5c[nH]c([C@@H]6CCCN6C(=O)[C@@H](NC(=O)OC)C(C)C)n5)cc4)c(OC(F)(F)F)c3)cn2)C[C@@H]1C in the records?
1.48

* * *

- assay_overview: TD-6450 phase I clinical study (SAD/MAD): pharmacokinetics
- Format: in vivo, human
- condition_context: female, human, plasma, oral, 5 mg, Female subjects, SAD arm NCT02022306, Dose 5.00, 72 Hours; read-out: Concentration
property_measured: concentration at 72 h (ng/mL)
Please give a number only; it is taken to be in ng/mL.

What value of concentration at 72 h has been recorded for this entry: CNC(=O)N1C[C@@H](C)N(c2ccc(C(=O)Nc3ccc(-c4ccc(-c5c[nH]c([C@@H]6CCCN6C(=O)[C@@H](NC(=O)OC)C(C)C)n5)cc4)c(OC(F)(F)F)c3)cn2)C[C@@H]1C
1.75

* * *

- Test system: mature stage V gametocytes (NF54 strain)
- assay_overview: High-throughput screening: killing effect by MitoTracker staining, primary screening at 1.11 µM and dose-response analysis
- Format: cell-based, Plasmodium falciparum
- condition_context: Plasmodium falciparum, NF54, 24 h, stage V gametocytes NF54, 24 h, dose-response analysis; N/A = not active in dose-response analysis; read-out: Killing IC50
Where a name gives a salt, the structure may show the parent alone.
property_measured: log10 of IC50 (log10 of the value in nM)
Short version: log10 scale, IC50, nM.

1) COC1=C(OC)C(=O)C(CCCCCCCCCC[P+](c2ccccc2)(c2ccccc2)c2ccccc2)=C(C)C1=O [Mitoquinone mesylate]; 4.07
2) CCCN1CCC(c2ccc(Nc3nc(Nc4cc(F)ccc4C(N)=O)c4cc[nH]c4n3)c(OC)c2)CC1 [GSK1326255A]; 3.92
3) O=C(NO)c1cnc(N2C[C@@H]3[C@H](C2)[C@H]3NCc2ccc3cc(F)ccc3n2)nc1; 1.85

# lookup: log10 of IC50 of CCCN1CCCC(c2ccc(Nc3nc(Nc4cc(F)ccc4C(N)=O)c4cc[nH]c4n3)c(OC)c2)C1 (stereo not shown) [GSK1173862A]
3.38

* * *

- assay_overview: TD-6450 phase I clinical study (SAD/MAD): pharmacokinetics
- Format: in vivo, human
- condition_context: female, human, plasma, oral, 5 mg, Female subjects, SAD arm NCT02022306, Dose 5.00, 144 Hours; read-out: Concentration
property_measured: concentration at 144 h
Please give the number followed by its unit.

If you can, please state the reported concentration at 144 h value of CNC(=O)N1C[C@@H](C)N(c2ccc(C(=O)Nc3ccc(-c4ccc(-c5c[nH]c([C@@H]6CCCN6C(=O)[C@@H](NC(=O)OC)C(C)C)n5)cc4)c(OC(F)(F)F)c3)cn2)C[C@@H]1C [TD-6450] .
0.77 ng/mL

* * *

- assay_overview: TD-6450 phase I clinical study (SAD/MAD): pharmacokinetics
- Format: in vivo, human
- condition_context: male, human, in vivo, TD-6450 concentration
- Experimental: Primary and secondary outcomes were pre-defined as follows: Safety and tolerability as a primary outcome, pharmacokinetics as a secondary outcome. Safety and tolerability were evaluated using standard measures, including adverse event (AE) monitoring, clinical laboratory tests (hematology, serum chemistry, coagulation, and urinalysis), vital signs, physical examinations, and 12-lead electrocardiograms (ECGs). […] This study was conducted in two parts, Part A (SAD) and Part B (MAD). […]
property_measured: concentration at 12 h (ng/mL)
Kindly provide the numeric value in ng/mL only, without the unit symbol.

What value of concentration at 12 h has been recorded for this entry: CNC(=O)N1C[C@@H](C)N(c2ccc(C(=O)Nc3ccc(-c4ccc(-c5c[nH]c([C@@H]6CCCN6C(=O)[C@@H](NC(=O)OC)C(C)C)n5)cc4)c(OC(F)(F)F)c3)cn2)C[C@@H]1C
108

* * *

- assay_overview: TD-6450 phase I clinical study (SAD/MAD): pharmacokinetics
- Format: in vivo, human
- condition_context: male, human, in vivo, TD-6450 concentration
property_measured: concentration at 4 h (ng/mL)
Unit ng/mL implied. Number only.

concentration at 4 h for CNC(=O)N1C[C@@H](C)N(c2ccc(C(=O)Nc3ccc(-c4ccc(-c5c[nH]c([C@@H]6CCCN6C(=O)[C@@H](NC(=O)OC)C(C)C)n5)cc4)c(OC(F)(F)F)c3)cn2)C[C@@H]1C [TD-6450] ?
159
